Tested on: DMS-114 complex spheroids with HUVEC/MSC, growth % test/control
EXPERIMENT_NOTES: Anticancer human tumor DMS-114 cell line growth inhibition [AhR]; active means viability on the fitted dose curve at most 10% of control; inactive means the rest
MEASUREMENT_CONTEXT: second compound 1 µM; first compound 3.16 µM
Outcome codes: 1 = active, 0 = inactive

MOLECULE	CLASS_NAME
COc1cccc2c1C(=O)c1c(O)c3c(c(O)c1C2=O)CC(O)(C(=O)CO)CC3OC1CC(N)C(O)C(C)O1 (stereo not drawn) + CC(CO)NC(=O)c1cc(-c2ccc(Cl)cc2)nn(-c2cnn(C)c2)c1=O	1
Nc1ccccc1NC(=O)c1ccc(CNC(=O)OCc2cccnc2)cc1 + Cc1ccccc1N=Nc1ccc(NC(=O)c2ccnn2C)c(C)c1	0
COc1cc(C2c3cc4c(cc3C(OC3OC5COC(C)OC5C(O)C3O)C3COC(=O)C23)OCO4)cc(OC)c1O (stereo not drawn) + Cc1cncc(-c2nc(NCCc3c[nH]c4ccccc34)c3ncn(C(C)C)c3n2)c1	0

---

Tested on: DMS-114 complex spheroids with HUVEC/MSC, growth % test/control
EXPERIMENT_NOTES: Anticancer human tumor DMS-114 cell line growth inhibition [AhR];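 further: spheroids exposed to agents for 7 days before readout; 100% = DMSO vehicle control wells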
MEASUREMENT_CONTEXT: second compound 0.1 µM; first compound 0.000949 µM; stronger effect = lower value
# viability, T/C values compiled below

MOLECULE	READOUT_UNITS	viability, T/C
CCc1c2c(nc3ccc(O)cc13)-c1cc3c(c(=O)n1C2)COC(=O)[C@]3(O)CC + Cc1cncc(-c2nc(NCCc3c[nH]c4ccccc34)c3ncn(C(C)C)c3n2)c1	%	67.4
CC(C)CC(NC(=O)C(Cc1ccccc1)NC(=O)c1cnccn1)B(O)O (stereo unspecified) + Cc1cncc(-c2nc(NCCc3c[nH]c4ccccc34)c3ncn(C(C)C)c3n2)c1	%	113
CCc1c2c(nc3ccc(O)cc13)-c1cc3c(c(=O)n1C2)COC(=O)[C@]3(O)CC + Cc1ccccc1N=Nc1ccc(NC(=O)c2ccnn2C)c(C)c1	%	98.3
Nc1ncn(C2CC(O)C(CO)S2)c(=O)n1 (stereo unspecified) + Cc1ccccc1N=Nc1ccc(NC(=O)c2ccnn2C)c(C)c1	%	94.1
Nc1ncn(C2CC(O)C(CO)S2)c(=O)n1 (stereo unspecified) + CC(CO)NC(=O)c1cc(-c2ccc(Cl)cc2)nn(-c2cnn(C)c2)c1=O	%	117
Nc1ncn(C2CC(O)C(CO)S2)c(=O)n1 (stereo unspecified) + Cc1cncc(-c2nc(NCCc3c[nH]c4ccccc34)c3ncn(C(C)C)c3n2)c1	%	101

---

Tested on: DMS-114 complex spheroids with HUVEC/MSC, growth % test/control
EXPERIMENT_NOTES: Anticancer human tumor DMS-114 cell line growth inhibition [AhR];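 further: spheroids exposed to agents for 7 days before readout; 100% = DMSO vehicle control wells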
MEASUREMENT_CONTEXT: second compound 0.316 µM; first compound 0.316 µM; stronger effect = lower value
# viability, T/C values compiled below

COMPOUND	viability, T/C / %
NS(=O)(=O)OCC1CC(n2ccc3c(NC4CCc5ccccc54)ncnc32)CC1O (stereo unspecified) + CC(CO)NC(=O)c1cc(-c2ccc(Cl)cc2)nn(-c2cnn(C)c2)c1=O	17.7
COc1cccc2c1C(=O)c1c(O)c3c(c(O)c1C2=O)CC(O)(C(=O)CO)CC3OC1CC(N)C(O)C(C)O1 (stereo unspecified) + Cc1ccccc1N=Nc1ccc(NC(=O)c2ccnn2C)c(C)c1	19.4
CC1COCCN1c1cc(C2(S(C)(=N)=O)CC2)nc(-c2ccnc3[nH]ccc23)n1 (stereo unspecified) + Cc1cncc(-c2nc(NCCc3c[nH]c4ccccc34)c3ncn(C(C)C)c3n2)c1	100
Nc1ccn(C2OC(CO)C(O)C2(F)F)c(=O)n1 (stereo unspecified) + CC(CO)NC(=O)c1cc(-c2ccc(Cl)cc2)nn(-c2cnn(C)c2)c1=O	13
Nc1ncn(C2CC(O)C(CO)O2)c(=O)n1 (stereo unspecified) + Cc1ccccc1N=Nc1ccc(NC(=O)c2ccnn2C)c(C)c1	96.3
CC1COCCN1c1cc(C2(S(C)(=N)=O)CC2)nc(-c2ccnc3[nH]ccc23)n1 (stereo unspecified) + CC(CO)NC(=O)c1cc(-c2ccc(Cl)cc2)nn(-c2cnn(C)c2)c1=O	93.4

---

System: DMS-114 complex spheroids with HUVEC/MSC, growth % test/control
EXPERIMENT_NOTES: Anticancer human tumor DMS-114 cell line growth inhibition [AhR]; active means viability on the fitted dose curve at most 10% of control; inactive means the rest;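 further: spheroids exposed to agents for 7 days before readout; 100% = DMSO vehicle control wells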
MEASUREMENT_CONTEXT: second compound 3.16 µM; first compound 0.03 µM
Excerpt: Multicellular complex tumor spheroid response to aryl hydrocarbon receptor antagonists in combination with a variety of drugs and investigational agents in selected tumor cell lines […] Compounds. […] If the clinical Cmax for an agent had not been determined, the highest concentration tested was 10 microM (Table 1). […]
Outcome codes: true = active, false = inactive

COMPOUND	CLASS_NAME
CCc1c2c(nc3ccc(O)cc13)-c1cc3c(c(=O)n1C2)COC(=O)[C@]3(O)CC + Cc1ccccc1N=Nc1ccc(NC(=O)c2ccnn2C)c(C)c1	false
Nc1ncn(C2CC(O)C(CO)S2)c(=O)n1 (stereo not given) + Cc1cncc(-c2nc(NCCc3c[nH]c4ccccc34)c3ncn(C(C)C)c3n2)c1	false
CCc1c2c(nc3ccc(O)cc13)-c1cc3c(c(=O)n1C2)COC(=O)[C@]3(O)CC + Cc1cncc(-c2nc(NCCc3c[nH]c4ccccc34)c3ncn(C(C)C)c3n2)c1	false
CC(C)CC(NC(=O)C(Cc1ccccc1)NC(=O)c1cnccn1)B(O)O (stereo not given) + Cc1cncc(-c2nc(NCCc3c[nH]c4ccccc34)c3ncn(C(C)C)c3n2)c1	true
CCN(c1cc(-c2ccc(CN3CCOCC3)cc2)cc(C(=O)NCc2c(C)cc(C)[nH]c2=O)c1C)C1CCOCC1 + CC(CO)NC(=O)c1cc(-c2ccc(Cl)cc2)nn(-c2cnn(C)c2)c1=O	false
Nc1ncn(C2CC(O)C(CO)S2)c(=O)n1 (stereo not given) + CC(CO)NC(=O)c1cc(-c2ccc(Cl)cc2)nn(-c2cnn(C)c2)c1=O	false
O=C(C=Cn1cnc(-c2cc(C(F)(F)F)cc(C(F)(F)F)c2)n1)NNc1cnccn1 + Cc1ccccc1N=Nc1ccc(NC(=O)c2ccnn2C)c(C)c1	false
CCN(c1cc(-c2ccc(CN3CCOCC3)cc2)cc(C(=O)NCc2c(C)cc(C)[nH]c2=O)c1C)C1CCOCC1 + Cc1ccccc1N=Nc1ccc(NC(=O)c2ccnn2C)c(C)c1	false
O=C(C=Cn1cnc(-c2cc(C(F)(F)F)cc(C(F)(F)F)c2)n1)NNc1cnccn1 + CC(CO)NC(=O)c1cc(-c2ccc(Cl)cc2)nn(-c2cnn(C)c2)c1=O	false
CC(C)CC(NC(=O)C(Cc1ccccc1)NC(=O)c1cnccn1)B(O)O (stereo not given) + Cc1ccccc1N=Nc1ccc(NC(=O)c2ccnn2C)c(C)c1	true
O=C(C=Cn1cnc(-c2cc(C(F)(F)F)cc(C(F)(F)F)c2)n1)NNc1cnccn1 + Cc1cncc(-c2nc(NCCc3c[nH]c4ccccc34)c3ncn(C(C)C)c3n2)c1	false
CCN(c1cc(-c2ccc(CN3CCOCC3)cc2)cc(C(=O)NCc2c(C)cc(C)[nH]c2=O)c1C)C1CCOCC1 + Cc1cncc(-c2nc(NCCc3c[nH]c4ccccc34)c3ncn(C(C)C)c3n2)c1	false
Nc1ncn(C2CC(O)C(CO)S2)c(=O)n1 (stereo not given) + Cc1ccccc1N=Nc1ccc(NC(=O)c2ccnn2C)c(C)c1	false
CC(C)CC(NC(=O)C(Cc1ccccc1)NC(=O)c1cnccn1)B(O)O (stereo not given) + CC(CO)NC(=O)c1cc(-c2ccc(Cl)cc2)nn(-c2cnn(C)c2)c1=O	true
CCc1c2c(nc3ccc(O)cc13)-c1cc3c(c(=O)n1C2)COC(=O)[C@]3(O)CC + CC(CO)NC(=O)c1cc(-c2ccc(Cl)cc2)nn(-c2cnn(C)c2)c1=O	false

---

Tested on: DMS-114 complex spheroids with HUVEC/MSC, growth % test/control
EXPERIMENT_NOTES: Anticancer human tumor DMS-114 cell line growth inhibition [AhR]; active means viability on the fitted dose curve at most 10% of control; inactive means the rest;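 further: spheroids exposed to agents for 7 days before readout; 100% = DMSO vehicle control wells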
MEASUREMENT_CONTEXT: second compound 0.316 µM; first compound 10 µM
Outcome codes: T (active), F (inactive)

COMPOUND	CLASS_NAME
CC1(C)CCC(CN2CCN(c3ccc(C(=O)NS(=O)(=O)c4ccc(NCC5CCOCC5)c([N+](=O)[O-])c4)c(Oc4cnc5[nH]ccc5c4)c3)CC2)=C(c2ccc(Cl)cc2)C1 + Cc1ccccc1N=Nc1ccc(NC(=O)c2ccnn2C)c(C)c1	F
NS(=O)(=O)OCC1CC(n2ccc3c(NC4CCc5ccccc54)ncnc32)CC1O (centres undefined) + Cc1ccccc1N=Nc1ccc(NC(=O)c2ccnn2C)c(C)c1	F
COc1cccc2c1C(=O)c1c(O)c3c(c(O)c1C2=O)CC(O)(C(=O)CO)CC3OC1CC(N)C(O)C(C)O1 (centres undefined) + Cc1cncc(-c2nc(NCCc3c[nH]c4ccccc34)c3ncn(C(C)C)c3n2)c1	T
NS(=O)(=O)OCC1CC(n2ccc3c(NC4CCc5ccccc54)ncnc32)CC1O (centres undefined) + CC(CO)NC(=O)c1cc(-c2ccc(Cl)cc2)nn(-c2cnn(C)c2)c1=O	T
CC(C)c1c(-c2ccccc2)nc2c(C#N)c[nH]n2c1=O + Cc1ccccc1N=Nc1ccc(NC(=O)c2ccnn2C)c(C)c1	F
Nc1ccccc1NC(=O)c1ccc(CNC(=O)OCc2cccnc2)cc1 + Cc1cncc(-c2nc(NCCc3c[nH]c4ccccc34)c3ncn(C(C)C)c3n2)c1	T
COc1cc(Nc2ncc3c(n2)-c2ccc(Cl)cc2C(c2c(F)cccc2OC)=NC3)ccc1C(=O)O + Cc1ccccc1N=Nc1ccc(NC(=O)c2ccnn2C)c(C)c1	F
NS(=O)(=O)OCC1CC(n2ccc3c(NC4CCc5ccccc54)ncnc32)CC1O (centres undefined) + Cc1cncc(-c2nc(NCCc3c[nH]c4ccccc34)c3ncn(C(C)C)c3n2)c1	T
COc1cc(C2c3cc4c(cc3C(OC3OC5COC(C)OC5C(O)C3O)C3COC(=O)C23)OCO4)cc(OC)c1O (centres undefined) + Cc1cncc(-c2nc(NCCc3c[nH]c4ccccc34)c3ncn(C(C)C)c3n2)c1	F
CC(C)c1c(-c2ccccc2)nc2c(C#N)c[nH]n2c1=O + Cc1cncc(-c2nc(NCCc3c[nH]c4ccccc34)c3ncn(C(C)C)c3n2)c1	F
O=C(C=Cc1cccc(S(=O)(=O)Nc2ccccc2)c1)NO + CC(CO)NC(=O)c1cc(-c2ccc(Cl)cc2)nn(-c2cnn(C)c2)c1=O	F
CC1COCCN1c1cc(C2(S(C)(=N)=O)CC2)nc(-c2ccnc3[nH]ccc23)n1 (centres undefined) + Cc1ccccc1N=Nc1ccc(NC(=O)c2ccnn2C)c(C)c1	F
COc1cccc2c1C(=O)c1c(O)c3c(c(O)c1C2=O)CC(O)(C(=O)CO)CC3OC1CC(N)C(O)C(C)O1 (centres undefined) + Cc1ccccc1N=Nc1ccc(NC(=O)c2ccnn2C)c(C)c1	T
O=C(c1cc(Cc2n[nH]c(=O)c3ccccc23)ccc1F)N1CCN(C(=O)C2CC2)CC1 + CC(CO)NC(=O)c1cc(-c2ccc(Cl)cc2)nn(-c2cnn(C)c2)c1=O	F
COc1ccc([C@@H](O)c2cc(-c3ncnc4cc(N5CCOCC5)ccc34)c(F)cc2Cl)nn1 + CC(CO)NC(=O)c1cc(-c2ccc(Cl)cc2)nn(-c2cnn(C)c2)c1=O	F
COc1ccc([C@@H](O)c2cc(-c3ncnc4cc(N5CCOCC5)ccc34)c(F)cc2Cl)nn1 + Cc1cncc(-c2nc(NCCc3c[nH]c4ccccc34)c3ncn(C(C)C)c3n2)c1	F
Nc1ccn(C2OC(CO)C(O)C2(F)F)c(=O)n1 (centres undefined) + Cc1cncc(-c2nc(NCCc3c[nH]c4ccccc34)c3ncn(C(C)C)c3n2)c1	T
Nc1ccccc1NC(=O)c1ccc(CNC(=O)OCc2cccnc2)cc1 + Cc1ccccc1N=Nc1ccc(NC(=O)c2ccnn2C)c(C)c1	F
COc1cc(C2c3cc4c(cc3C(OC3OC5COC(C)OC5C(O)C3O)C3COC(=O)C23)OCO4)cc(OC)c1O (centres undefined) + Cc1ccccc1N=Nc1ccc(NC(=O)c2ccnn2C)c(C)c1	F
COc1cccc2c1C(=O)c1c(O)c3c(c(O)c1C2=O)CC(O)(C(=O)CO)CC3OC1CC(N)C(O)C(C)O1 (centres undefined) + CC(CO)NC(=O)c1cc(-c2ccc(Cl)cc2)nn(-c2cnn(C)c2)c1=O	T
COc1cc(Nc2ncc3c(n2)-c2ccc(Cl)cc2C(c2c(F)cccc2OC)=NC3)ccc1C(=O)O + CC(CO)NC(=O)c1cc(-c2ccc(Cl)cc2)nn(-c2cnn(C)c2)c1=O	F
COc1cc(C2c3cc4c(cc3C(OC3OC5COC(C)OC5C(O)C3O)C3COC(=O)C23)OCO4)cc(OC)c1O (centres undefined) + CC(CO)NC(=O)c1cc(-c2ccc(Cl)cc2)nn(-c2cnn(C)c2)c1=O	F
O=C(c1cc(Cc2n[nH]c(=O)c3ccccc23)ccc1F)N1CCN(C(=O)C2CC2)CC1 + Cc1ccccc1N=Nc1ccc(NC(=O)c2ccnn2C)c(C)c1	F
CC1(C)CCC(CN2CCN(c3ccc(C(=O)NS(=O)(=O)c4ccc(NCC5CCOCC5)c([N+](=O)[O-])c4)c(Oc4cnc5[nH]ccc5c4)c3)CC2)=C(c2ccc(Cl)cc2)C1 + Cc1cncc(-c2nc(NCCc3c[nH]c4ccccc34)c3ncn(C(C)C)c3n2)c1	F
